- Read-out: Interferon-gamma inducible Protein 10 (IP10), CXCL10 (gene 3627)
- assay_explanation: BSK_BE3C_IP10: BioMAP Diversity Plus: BE3C Assay for Interferon-gamma inducible Protein 10 (IP10) Biomarker Activity (AID 2283034)
- test_parameters: primary human bronchial epithelial cells; actives raise or lower the signal
- Experimental: BSK_BE3C is a cell-based, multiplexed-readout assay that uses bronchial epithelial cell, a human lung primary cell, with measurements taken at 24 hours after chemical dosing in a 96-well plate.BSK_BE3C_IP10 is an assay component measured in the BSK_BE3C assay. It measures IP-10 antibody related to regulation of gene expression using ELISA technology.Data from the assay component BSK_BE3C_IP10 was analyzed into 1 assay endpoint. […]
Calls of active or inactive are those of the source. Rule for the calls: active = hit-call score of the fitted dose curve at least 0.9, where 1 is the maximum; inactive = score below 0.9.
# valid calls are active, inactive; nothing else

A selection of reference data follows.
smiles_record=O=C(NS(=O)(=O)/C=C/c1ccccc1)c1ccc(F)cc1Cl class_assignment=inactive
smiles_record=COC(=O)CC(=O)OC class_assignment=inactive

Continue with the compound presented below.
Any idea what this test logged for `CCCCCCc1ccc(O)cc1O` ?
active

----------
- Read-out: Alpha-fetoprotein (AFP) gene, AFP (gene 174)
- assay_explanation: LTEA_HepaRG_AFP: Life Technologies and Expression Analysis (LTEA) Assay for Alpha-fetoprotein (AFP) gene using HepaRG (AID 2283472)
- test_parameters: mRNA level, 48 h; actives raise or lower the signal
Activity calls are given as the source filed them. Rule for the calls: active = hit-call score of the fitted dose curve at least 0.9, where 1 is the maximum; inactive = score below 0.9.
# valid calls are true (1) (active), false (0) (inactive); nothing else

Any idea what this test logged for O=c1n(CC2CO2)c(=O)n(CC2CO2)c(=O)n1CC1CO1 (centres undefined) ?
false (0)

Any idea what this test logged for `CCN(C(=O)c1cc(C)cc(OC[C@H](C)Nc2ccncc2)c1)C(C)C` ?
true (1)

Any idea what this test logged for `O=C(O)c1cccc(Oc2ccccc2)c1` ?
false (0)

----------
- Read-out: 3-Hydroxy-3-Methylglutaryl-CoA Synthase 2 (HMGCS2), HMGCS2 (gene 3158)
- assay_explanation: LTEA_HepaRG_HMGCS2: Life Technologies and Expression Analysis (LTEA) Assay for 3-Hydroxy-3-Methylglutaryl-CoA Synthase 2 (HMGCS2) using HepaRG (AID 2283504)
- test_parameters: mRNA level, 48 h; actives raise or lower the signal
The source made the active and inactive calls. Rule for the calls: active = hit-call score of the fitted dose curve at least 0.9, where 1 is the maximum; inactive = score below 0.9.
# valid calls are active, inactive; nothing else

Any idea what this test logged for `COc1cccc(-c2ccc(/C=C\CN3CCCCCC3)cc2Cl)c1` ?
active

----------
- assay_explanation: APR_HepG2_MitoMass_72hr: Apredica 72-hour HepG2 Assay for Mitochondrial Mass (AID 2282924);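 note: MitoTracker Red CMXRos stain intensity per cell imaged as mitochondrial mass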
- test_parameters: high-content imaging, actives raise or lower the signal
Calls of active or inactive are those of the source. How the source made its calls: active means hit-call score of the fitted dose curve at least 0.9, where 1 is the maximum; inactive means score below 0.9.
# valid calls are active, inactive; nothing else

molecule=O=C(O)c1cccc(Oc2ccccc2)c1 class_assignment=inactive
molecule=CC(C)CCO class_assignment=inactive
molecule="O=c1[nH]c2ccc(S(=O)CCN3CCC(Cc4ccc(F)cc4)CC3)cc2o1 (centres undefined)" class_assignment=inactive
molecule=NC(=O)NO class_assignment=inactive
molecule="O=C1CCC(N2C(=O)c3ccccc3C2=O)C(=O)N1 (centres undefined)" class_assignment=inactive
molecule=O=C(NS(=O)(=O)/C=C/c1ccccc1)c1ccc(F)cc1Cl class_assignment=inactive
molecule="COc1ccc(-n2nc(C(F)F)cc2-c2ccc(S(C)=O)cc2)cc1 (centres undefined)" class_assignment=active
molecule=CN(C)c1ccc(N=NS(=O)(=O)O)cc1 class_assignment=inactive

Any idea what this test logged for `COCCOc1cc2cc(C(=O)NC3CCN(C(C)C)CC3)n(CC(=O)Nc3ccc(Cl)cn3)c2cn1` ?
inactive

Any idea what this test logged for `CCCCCCCCO` ?
inactive

Any idea what this test logged for `CC(C)=CCCC(C)=CC=O` ?
inactive

Any idea what this test logged for `CCCC(=O)OCC` ?
inactive

Any idea what this test logged for CC(O)CN(CCN(CC(C)O)CC(C)O)CC(C)O (centres undefined) ?
inactive

Any idea what this test logged for CC(C)=CCCC(C)CCO (centres undefined) ?
active

Any idea what this test logged for `CCOC(=O)CC(CC(=O)OCC)(OC(C)=O)C(=O)OCC` ?
inactive

Any idea what this test logged for `CC(C)=CCC/C(C)=C/CO` ?
inactive

Any idea what this test logged for O=C(O)CC(O)C(=O)O (centres undefined) ?
inactive

Any idea what this test logged for `O=C(O)c1cc(N=Nc2ccc(S(=O)(=O)Nc3ccccn3)cc2)ccc1O` ?
inactive

----------
- experimental_target: Retinoic acid receptor RXR-alpha (Homo sapiens) (UniProt P19793)
- Sequence (P19793 whole entry, looked up): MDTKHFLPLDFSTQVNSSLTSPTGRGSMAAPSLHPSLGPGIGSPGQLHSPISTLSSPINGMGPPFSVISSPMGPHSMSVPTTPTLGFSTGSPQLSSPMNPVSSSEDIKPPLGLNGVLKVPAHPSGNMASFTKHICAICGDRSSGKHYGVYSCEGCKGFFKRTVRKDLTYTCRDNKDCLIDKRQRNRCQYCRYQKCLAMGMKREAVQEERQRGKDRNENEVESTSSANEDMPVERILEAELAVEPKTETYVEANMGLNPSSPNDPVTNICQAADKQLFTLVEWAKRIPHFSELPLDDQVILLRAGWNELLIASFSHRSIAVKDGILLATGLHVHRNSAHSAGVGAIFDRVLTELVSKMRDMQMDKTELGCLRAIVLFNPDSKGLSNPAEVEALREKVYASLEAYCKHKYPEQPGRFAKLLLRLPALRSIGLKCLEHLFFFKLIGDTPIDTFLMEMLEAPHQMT
- assay_explanation: OT_NURR1_NURR1RXRa_0480: Odyssey Thera (OT) 8-hour HEK293T Protein Complementation Assay for Nurr1/retinoid X receptor (RXR) (AID 2283385)
Inconclusive results are not listed. Activity calls are given as the source filed them. How the source made its calls: active means hit-call score of the fitted dose curve at least 0.9, where 1 is the maximum; inconclusive means response in the unintended direction; inactive means score below 0.9.
experimental_endpoint: outcome

compound=CN(C)c1ccc(N=NS(=O)(=O)O)cc1 experimental_target="Retinoic acid receptor RXR-alpha (Homo sapiens) (UniProt P19793)" reported_measurement=inactive
compound="O=C1CCC(N2C(=O)c3ccccc3C2=O)C(=O)N1 (stereo not drawn)" experimental_target="Retinoic acid receptor RXR-alpha (Homo sapiens) (UniProt P19793)" reported_measurement=inactive
compound=O=C(CCCCCCCCc1cccnc1)N1CCC(C=C(c2ccccc2)c2ccccc2)CC1 experimental_target="Retinoic acid receptor RXR-alpha (Homo sapiens) (UniProt P19793)" reported_measurement=inactive

----------
- Read-out: Insulin Like Growth Factor 1 (IGF1), IGF1 (gene 3479)
- assay_explanation: LTEA_HepaRG_IGF1: Life Technologies and Expression Analysis (LTEA) Assay for Insulin Like Growth Factor 1 (IGF1) using HepaRG (AID 2283506)
- test_parameters: mRNA level, 48 h; actives raise or lower the signal
The source made the active and inactive calls. How the source made its calls: active means hit-call score of the fitted dose curve at least 0.9, where 1 is the maximum; inactive means score below 0.9.
# valid calls are true (1) (active), false (0) (inactive); nothing else

compound=C1=CCCC=CCCC=CCC1 class_assignment="false (0)"
compound=COc1ccc2sc(C(=O)Nc3nnn[nH]3)c(OC(C)C)c2c1 class_assignment="false (0)"
compound=COCCOc1cc2cc(C(=O)NC3CCN(C(C)C)CC3)n(CC(=O)Nc3ccc(Cl)cn3)c2cn1 class_assignment="true (1)"
compound=CCOCCO class_assignment="false (0)"

Any idea what this test logged for `CC(C)=CCC/C(C)=C\CO` ?
false (0)

Any idea what this test logged for CCCCC(CC)COC(=O)CCCCCCCCC(=O)OCC(CC)CCCC (stereo not given) ?
false (0)

Any idea what this test logged for `CCCCCCc1ccc(O)cc1O` ?
false (0)

----------
- assay_explanation: Tanguay_ZF_120hpf_YSE_legacy: (Legacy) Oregon State University Tanguay Lab 120 Hour Post-fertilization zebrafish Assay for Yolk Sac Edema (AID 2283634)
Records with an inconclusive call do not appear. Active and inactive are the calls of the source. The calls were made as follows: active = hit-call score of the fitted dose curve at least 0.9, where 1 is the maximum; inconclusive = response in the unintended direction; inactive = score below 0.9.
# valid calls are active, inactive; nothing else

A selection of reference data follows.
compound="O=c1n(CC2CO2)c(=O)n(CC2CO2)c(=O)n1CC1CO1 (stereo unspecified)" class_assignment=inactive
compound="CCCCC(CC)COC(=O)CCCCCCCCC(=O)OCC(CC)CCCC (stereo unspecified)" class_assignment=inactive
compound=Cc1[nH]cnc1C[C@H]1CCc2c(C)c3ccccc3n2C1=O class_assignment=inactive

Any idea what this test logged for `CN(C)c1ccc(Cc2ccc(N(C)C)cc2)cc1` ?
inactive

Any idea what this test logged for `CCN(C(=O)c1cc(C)cc(OC[C@H](C)Nc2ccncc2)c1)C(C)C` ?
inactive

Any idea what this test logged for `C[C@](N)(Cc1ccc(O)c(O)c1)C(=O)O` ?
inactive

Any idea what this test logged for `CCCCCCCCO` ?
inactive

Any idea what this test logged for `Cn1c(=O)cc(Oc2ccc(F)cc2F)c2cnc(NCC(C)(C)O)nc21` ?
active

Any idea what this test logged for CC(C)=CCCC(C)CCO (stereo unspecified) ?
inactive

Any idea what this test logged for `CC[C@H]1CC[C@H](NCc2cc3c(cc2OC)[C@H]2C[C@H]2C(=O)N3C)[C@H](c2ccccc2)N1` ?
inactive

Any idea what this test logged for `COc1cccc(-c2ccc(/C=C\CN3CCCCCC3)cc2Cl)c1` ?
inactive

----------
- Read-out: Vascular cell adhesion molecule 1 (VCAM1), VCAM1 (gene 7412)
- assay_explanation: BSK_LPS_VCAM1: BioMAP Diversity Plus: LPS Assay for Vascular cell adhesion molecule 1 (VCAM1) Biomarker Activity (AID 2283086)
- test_parameters: primary human HUVEC with PBMC; actives raise or lower the signal
The source made the active and inactive calls. How the source made its calls: active means hit-call score of the fitted dose curve at least 0.9, where 1 is the maximum; inactive means score below 0.9.
# valid calls are YES (active), NO (inactive); nothing else

A selection of reference data follows.
smiles_record=CC(C)c1cccc(C(C)C)c1N1C(=O)c2ccc(O)cc2C1=O class_assignment=YES
smiles_record=C1N2CN3CN1CN(C2)C3 class_assignment=NO
smiles_record=CCn1nc(Cc2ccccc2)cc1C1CCN(C[C@H]2C[C@H](N(C)[C@@H](C(=O)O)C(C)C)C[C@@H]2c2cccc(F)c2)CC1 class_assignment=NO
smiles_record=Cc1ccc(N)cc1O class_assignment=NO
smiles_record=CNCc1ccc(NC(=O)c2c[nH]c3c2C(=O)CCC3)cc1 class_assignment=NO

Any idea what this test logged for `O=C(O)c1cccc(Oc2ccccc2)c1` ?
NO

Any idea what this test logged for `CCCC(=O)OCC` ?
NO

Any idea what this test logged for `CC(C)=CCC/C(C)=C/CO` ?
NO

Any idea what this test logged for `NC(=O)NO` ?
NO

Origin of the recorded values: PubChem BioAssay (EPA / NIEHS)
